- TEST TARGET: Mcl-1 (Homo sapiens (Human))
- Sequence (Q07820 172-327): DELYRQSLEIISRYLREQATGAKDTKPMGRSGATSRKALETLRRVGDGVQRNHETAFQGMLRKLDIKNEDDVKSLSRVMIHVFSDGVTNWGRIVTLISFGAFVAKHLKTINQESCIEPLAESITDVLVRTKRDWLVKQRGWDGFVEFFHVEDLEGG
- METHOD DESCRIPTION: Fluorescence polarization competition assay (FPCA), Mcl-1 / FITC-Bak BH3 peptide
- Format: binding
- CONDITION NOTES: FPCA with FITC-Bak; Ki from IC50 by Nikolovska-Coleska equation; read-out: Mcl-1 Ki
Below, each entry is listed with its recorded Ki.
Return type: number; implicit unit µM.

ENTRY SMILES	U	Ki
CS(=O)(=O)NC(=O)c1ccc(N(Cc2ccccc2)S(=O)(=O)c2ccc(Oc3ccccc3)cc2)cc1O	µM	2.94
Cc1cc(CCCNc2ccc(C(=O)O)c(O)c2)cc(C)c1Cl	µM	15.2
O=C(O)c1cc(S(=O)(=O)Nc2ccc([N+](=O)[O-])cc2)c2ccccc2c1O	µM	4.49
O=C(O)c1cc(S(=O)(=O)Nc2ccc(Oc3cccc4ccccc34)cc2)c2ccccc2c1O	µM	0.082
CC(C)CN(c1ccc(C(=O)NO)c(O)c1)S(=O)(=O)c1ccc(Oc2ccccc2)cc1	µM	71
O=C(O)c1cc(S(=O)(=O)Nc2ccc(Br)cc2)c2ccccc2c1O	µM	2.76
N#Cc1ccc(NS(=O)(=O)c2cc(C(=O)O)c(O)c3ccccc23)cc1	µM	22.2

Now for the molecule whose Ki we want.
Prompt: Provide one value: measured Ki of "Cc1cc(Oc2ccc(S(=O)(=O)N(Cc3ccccc3)c3ccc(O)c(C(=O)O)c3)cc2)cc(C)c1Cl"
Completion: 1.4
